# System: T-47D breast
# Protocol: NCI-60 one-dose screen, 48 h (100 = growth as untreated, 0 = no growth, -100 = all killed)
# Condition parameters: 10 µM unless noted
About 83,000 compounds went through this panel and 20% of them were active in at least one assay; those are over-represented in the sample as a whole.
Strictly below 70% in growth: 1.0. Otherwise: 0.0.

CC(=O)c1sc(Nc2cccc(Nc3nc(C)c(C)s3)c2)nc1C | 1.0
Cc1cc(F)cc(NS(=O)(=O)c2ccc(-c3cnc(C4CC4)o3)cc2)c1 | 1.0
COc1cc(-c2noc(C[C@@H](NC(=O)OCc3ccccc3)C(C)C)n2)cc(OC)c1OC | 0.0
CC(C)(C)n1nnnc1C(Nc1nccs1)c1cc2cccc3ccc4cccc1c4c32 (centres undefined) | 0.0
COc1cc(/C=N/n2cnc3oc(-c4ccccc4)cc3c2=N)cc(CN2CCCCC2)c1O | 1.0

Consider the compound COc1cc2c3c(n(CCCN4CCC[C@H]4C(N)=O)c(=O)c2cc1OC)-c1cc2c(cc1C3=O)OCO2 . Is its growth strictly less than 70%?
1.0

Consider the compound COc1ccc(/C=C/C(=O)c2nnn(-c3ccc(Br)cc3)c2C)cc1OC . Is its growth strictly less than 70%?
1.0

The measurements presented in this section are drawn from PubChem BioAssay (NCI).
